Data origin: PubChem BioAssay AID1919015

# Test system: OVCAR-5 complex spheroids with HUVEC/MSC, viability, % test/control
# procedure.text: Anticancer human tumor OVCAR-5 cell line growth inhibition [AhR];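 note: spheroids exposed to compounds for 7 days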
# measurement.conditions: curve of first compound; second compound 1 µM
experimental.readout: IC50 (nM)
I only need the number, in nM, no unit after it.

O=C(C=Cc1cccc(S(=O)(=O)Nc2ccccc2)c1)NO + Cc1ccccc1N=Nc1ccc(NC(=O)c2ccnn2C)c(C)c1
1180

Ask: Please report the recorded IC50 for CC(C)CC(NC(=O)C(Cc1ccccc1)NC(=O)c1cnccn1)B(O)O (stereo not given) + Cc1cncc(-c2nc(NCCc3c[nH]c4ccccc34)c3ncn(C(C)C)c3n2)c1 .
Reply: 54.6

Ask: Could you tell me which IC50 is on file for COc1cc(C2c3cc4c(cc3C(OC3OC5COC(C)OC5C(O)C3O)C3COC(=O)C23)OCO4)cc(OC)c1O (stereo not given) + Cc1cncc(-c2nc(NCCc3c[nH]c4ccccc34)c3ncn(C(C)C)c3n2)c1 ?
Reply: 2360

---

# Test system: OVCAR-5 complex spheroids with HUVEC/MSC, viability, % test/control
# procedure.text: Anticancer human tumor OVCAR-5 cell line growth inhibition [AhR];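 note: spheroids exposed to compounds for 7 days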
# measurement.conditions: curve of first compound; second compound 3.16 µM
So basically: is IC50 under 3000 nM? Then Criterion met. Not under? Then Criterion not met.

Ask: Input CC1COCCN1c1cc(C2(S(C)(=N)=O)CC2)nc(-c2ccnc3[nH]ccc23)n1 (configuration not stated) + Cc1ccccc1N=Nc1ccc(NC(=O)c2ccnn2C)c(C)c1 ; condition: IC50 strictly below 3000 nM. Does it hold?
Reply: Criterion not met

Ask: Quick check: does COc1ccc([C@@H](O)c2cc(-c3ncnc4cc(N5CCOCC5)ccc34)c(F)cc2Cl)nn1 + CC(CO)NC(=O)c1cc(-c2ccc(Cl)cc2)nn(-c2cnn(C)c2)c1=O have IC50 under 3000 nM?
Reply: Criterion not met

Ask: Hi there! Is IC50 for Nc1ccn(C2OC(CO)C(O)C2(F)F)c(=O)n1 (configuration not stated) + Cc1ccccc1N=Nc1ccc(NC(=O)c2ccnn2C)c(C)c1 below 3000 nM, do you know?
Reply: Criterion met

Ask: Please state whether IC50 is below 3000 nM for NS(=O)(=O)OCC1CC(n2ccc3c(NC4CCc5ccccc54)ncnc32)CC1O (configuration not stated) + Cc1ccccc1N=Nc1ccc(NC(=O)c2ccnn2C)c(C)c1
Reply: Criterion met

Ask: Does the reported IC50 of the following molecule sit strictly below 3000 nM? CC1COCCN1c1cc(-c2ccnn2C)c2ccnc(-c3ccn[nH]3)c2n1 (configuration not stated) + Cc1ccccc1N=Nc1ccc(NC(=O)c2ccnn2C)c(C)c1
Reply: Criterion met

Ask: Report whether reported IC50 is lower than 3000 nM (strictly) for CC1COCCN1c1cc(-c2ccnn2C)c2ccnc(-c3ccn[nH]3)c2n1 (configuration not stated) + Cc1cncc(-c2nc(NCCc3c[nH]c4ccccc34)c3ncn(C(C)C)c3n2)c1
Reply: Criterion met

---

Below is a list of entries, each paired with its recorded IC50 value.
# Tested on: OVCAR-5 complex spheroids with HUVEC/MSC, viability, % test/control
# procedure.text: Anticancer human tumor OVCAR-5 cell line growth inhibition [AhR];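 note: spheroids exposed to compounds for 7 days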
# measurement.conditions: curve of first compound; second compound 3.16 µM

Answered cases to consult:
CCN(c1cc(-c2ccc(CN3CCOCC3)cc2)cc(C(=O)NCc2c(C)cc(C)[nH]c2=O)c1C)C1CCOCC1 + Cc1ccccc1N=Nc1ccc(NC(=O)c2ccnn2C)c(C)c1
> 3 µM
CCN(c1cc(-c2ccc(CN3CCOCC3)cc2)cc(C(=O)NCc2c(C)cc(C)[nH]c2=O)c1C)C1CCOCC1 + CC(CO)NC(=O)c1cc(-c2ccc(Cl)cc2)nn(-c2cnn(C)c2)c1=O
> 3 µM
CC(C)c1c(-c2ccccc2)nc2c(C#N)c[nH]n2c1=O + Cc1ccccc1N=Nc1ccc(NC(=O)c2ccnn2C)c(C)c1
> 10 µM
Nc1ncn(C2CC(O)C(CO)O2)c(=O)n1 (stereo unspecified) + Cc1ccccc1N=Nc1ccc(NC(=O)c2ccnn2C)c(C)c1
> 1 µM
Cn1ncnc1C1c2n[nH]c(=O)c3cc(F)cc(c23)NC1c1ccc(F)cc1 (stereo unspecified) + Cc1cncc(-c2nc(NCCc3c[nH]c4ccccc34)c3ncn(C(C)C)c3n2)c1
> 0.1 µM

Shift focus to the following entry.
Ask: # query: IC50 of entry CC(C)c1c(-c2ccccc2)nc2c(C#N)c[nH]n2c1=O + Cc1cncc(-c2nc(NCCc3c[nH]c4ccccc34)c3ncn(C(C)C)c3n2)c1
Reply: > 10 µM
